Target: Pim-1 (Homo sapiens (Human), UniProt P11309)
Sequence (P11309 whole entry): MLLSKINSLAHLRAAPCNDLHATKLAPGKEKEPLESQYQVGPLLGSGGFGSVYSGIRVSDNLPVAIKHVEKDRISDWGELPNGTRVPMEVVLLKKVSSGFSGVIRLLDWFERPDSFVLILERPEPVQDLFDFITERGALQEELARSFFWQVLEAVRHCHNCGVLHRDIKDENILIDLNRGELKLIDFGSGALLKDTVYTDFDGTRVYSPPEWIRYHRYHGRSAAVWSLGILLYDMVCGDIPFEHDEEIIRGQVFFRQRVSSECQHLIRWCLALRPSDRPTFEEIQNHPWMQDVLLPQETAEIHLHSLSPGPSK
Experiment: Pim enzyme assay (HTRF, 96-well), Pim-1
Type: biochemical
Settings: full length recombinant Pim-1, biotinylated-BAD (S112) peptide, 10-point curve, 2 h RT, read-out: Pim-1 IC50 IP
readoutName: IC50 (nM)
Lab book: enter the figure in nM, no units written.

Query: IC50; subject: Cc1cccc(Nc2ccc3cccc(-c4cc5c([nH]4)CCNC5=O)c3n2)c1
7.2

###

Biological target: Pim-1 (Homo sapiens (Human))
Assay: Pim-Mn enzyme assay (HTRF, 384-well), Pim-1
Format: biochemical
Details: Pim-1 enzyme 5 pM, ATP 1.5 μM, BAD (S112) 0.5 μM, HTRF, 22-point curve; read-out: Pim-1-Mn IC50 IP
Quick list: pIC50 per entry.
A value of pIC50 is the negative decimal logarithm of a concentration given in moles per litre.

Sample answers from the record:
Cc1nc2cccc(-c3cc4c([nH]3)CCNC4=O)c2nc1-c1ccccc1Cl: 7.63
Cc1nc2cccc(-c3cc4c([nH]3)[C@H](CO)NC4=O)c2nc1NC1(C)CC1: 8.76
Cc1nc2cccc(-c3[nH]c4c(c3Cl)C(=O)N[C@@H]4C)c2nc1NC1(C)CC1: 9.59
Cc1nc2cccc(-c3cc4c([nH]3)CCNC4=O)c2nc1N[C@H]1C[C@H](NC(=O)OC(C)(C)C)C1: 8.39
Cc1nc2cccc(-c3cc4c([nH]3)CCNC4=O)c2nc1NC1CCCCC1O (racemic): 8.31
Cc1nc2cccc(-c3cc4c([nH]3)C(Cc3ccc(Cl)cc3)CNC4=O)c2nc1N (racemic): 7.41
C[C@H](O)c1nc2cccc(-c3cc4c([nH]3)CCNC4=O)c2nc1NC(C)(C)C: 8.40
COCCN(CCOC)CCC(C)(C)Nc1nc2c(-c3cc4c([nH]3)CNC4=O)cccc2c(=O)n1C: 7.94

Query: pIC50; subject: Cc1nc2cccc(-c3cc4n(n3)CCNC4=O)c2nc1NC(C)(C)C
6.79

What do you get for CC(C)Nc1nc2c(-c3cc4c([nH]3)CCNC4=O)cccc2c(=O)n1-c1cccnc1 ?
7.94

What do you get for Cc1nc2cccc(-c3cc4c([nH]3)C(C)CNC4=O)c2nc1NC1CC1 (single isomer, unassigned) [Example 160] ?
9.00

What do you get for Cc1nc2cccc(-c3cc4c([nH]3)[C@H](C)NC4=O)c2nc1NCC(F)(F)F ?
8.20

What do you get for Cn1c(NC(C)(C)C)nc2c(-c3cc4c([nH]3)[C@@H](CCN)NC4=O)cccc2c1=O ?
10.40

What do you get for Cc1nc2ccnc(-c3cc4c([nH]3)CCNC4=O)c2nc1NC(C)(C)C ?
7.51

What do you get for CC(=O)N1CC[C@@H](Nc2nc3c(-c4cc5c([nH]4)CCNC5=O)cccc3nc2C)C1 ?
7.59

What do you get for CSc1nc2c(-c3cc4c([nH]3)CCNC4=O)cccc2c(=O)n1C ?
7.60

What do you get for Cc1nc2cccc(-c3cc4c([nH]3)CCNC4=O)c2nc1N[C@@H]1CCN(C(=O)OC(C)(C)C)C1 ?
7.58

What do you get for CC1(C)CCCCN1c1cnc2cccc(-c3cc4c([nH]3)CCNC4=O)c2n1 ?
8.89

What do you get for CCn1c(NC(C)(C)C)nc2c(-c3cc4c([nH]3)[C@@H](C)NC4=O)c(F)ccc2c1=O ?
10.54

What do you get for Cc1nc2cccc(-c3cc4c([nH]3)C(COCc3ccccc3)NC4=O)c2nc1NC(C)(C)C (racemic) ?
8.27

###

Quick list: pIC50 per entry.
Molecular target: Pim-1 (Homo sapiens (Human))
Test: Pim enzyme assay (HTRF, 96-well), Pim-1
Assay type: biochemical
Conditions: full length recombinant Pim-1, biotinylated-BAD (S112) peptide, 10-point curve, 2 h RT, read-out: Pim-1 IC50 IP
A value of pIC50 is the negative decimal logarithm of a concentration given in moles per litre.

Sample answers from the record:
O=C1NCCc2[nH]c(-c3cccc4ccc(O[C@H]5CCCNC5)nc34)cc21: 7.78
Cc1cccc(C)c1Nc1ccc2cccc(-c3cc4c([nH]3)CCNC4=O)c2n1: 8.12

Now let's try a different one.
Query: pIC50; subject: Nc1ccc(-c2ccc3cccc(-c4cc5c([nH]4)CCNC5=O)c3n2)c(F)c1
7.97

###

Molecular target: Pim-1 (Homo sapiens (Human), UniProt P11309)
Experiment: Pim-Mn enzyme assay (HTRF, 384-well), Pim-1
Assay type: biochemical
Conditions: Pim-1 enzyme 5 pM, ATP 1.5 μM, BAD (S112) 0.5 μM, HTRF, 22-point curve; read-out: Pim-1-Mn IC50 IP
readoutName: pIC50
A value of pIC50 is the negative decimal logarithm of a concentration given in moles per litre.

C[C@H]1NC(=O)c2cc(-c3cccc4c(N)nc(NC(C)(C)C)nc34)[nH]c21: 8.40

Now let's try a different one.
Query: pIC50; subject: Cc1nc2cccc(-c3cc4c([nH]3)C3(CCOCC3)NC4=O)c2nc1NC(C)(C)C
7.50

###

Target: Pim-2 (Homo sapiens (Human), UniProt Q9P1W9)
Sequence (Q9P1W9 whole entry): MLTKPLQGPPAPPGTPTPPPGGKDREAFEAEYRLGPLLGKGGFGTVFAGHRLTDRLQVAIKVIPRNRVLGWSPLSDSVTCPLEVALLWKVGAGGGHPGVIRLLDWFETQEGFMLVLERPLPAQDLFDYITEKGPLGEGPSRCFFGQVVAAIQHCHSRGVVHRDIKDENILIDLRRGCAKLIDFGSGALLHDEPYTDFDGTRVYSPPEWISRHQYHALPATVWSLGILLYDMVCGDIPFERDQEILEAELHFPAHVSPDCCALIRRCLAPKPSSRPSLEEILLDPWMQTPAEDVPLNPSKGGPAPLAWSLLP
Assay: Pim enzyme assay (HTRF, 96-well), Pim-2
Assay type: biochemical
Settings: full length recombinant Pim-2, biotinylated-BAD (S112) peptide, 10-point curve, 45 min RT, read-out: Pim-2 IC50 IP
readoutName: IC50 (nM)
Lab book: enter the figure in nM, no units written.

Cc1nc2cccc(-c3cc4c([nH]3)CCNC4=O)c2nc1NC1(C)COC1 [Example 197]: 5.7
O=C1NCCc2[nH]c(-c3cccc4ccc(-c5ccccc5)nc34)cc21 [Example 226]: 38.1

Now let's try a different one.
Query: IC50; subject: Cc1nc2cccc(-c3cc4c([nH]3)CCNC4=O)c2nc1NC1CCC1 [Example 131]
2.6

###

Quick list: IC50 per entry.
Molecular target: Pim-2 (Homo sapiens (Human))
Assay: Pim-Mn enzyme assay (HTRF, 384-well), Pim-2
Assay type: biochemical
Conditions: Pim-2 enzyme 0.5 pM, ATP 1.5 μM, BAD (S112) 0.5 μM, HTRF, 22-point curve; read-out: Pim-2-Mn IC50 IP
Lab book: enter the figure in nM, no units written.

Sample answers from the record:
Cc1nc2cccc(-c3cc4c([nH]3)[C@@H](CO)NC4=O)c2nc1NC1CC1: 0.177
CC(C)Nc1nc2c(-c3cc4c([nH]3)CCNC4=O)cccc2c(=O)n1-c1ccccn1: 29.4
Cc1nc2cccc(-c3cc4c([nH]3)CCNC4=O)c2nc1N[C@H]1CC[C@@H](N)C1 (single isomer, unassigned) [Example 143]: 0.4

Query: IC50; subject: Cc1nc2cccc(-c3cc4c([nH]3)[C@@H](C)NC4=O)c2nc1O[C@H](C)C(F)(F)F
258

What do you get for Cc1nc2cccc(-c3cc4c(=O)[nH]cnc4[nH]3)c2nc1N ?
21

What do you get for Cc1nc2cccc(-c3cc4c([nH]3)C(Cc3ccc(Cl)cc3)CNC4=O)c2nc1N (racemic) ?
19.1

What do you get for Cc1nc2cccc(-c3cc4c([nH]3)CCNC4=O)c2nc1N[C@H]1CCN(C(=O)OC(C)(C)C)C1 ?
144

What do you get for Cc1nc2cccc(-c3cc4c([nH]3)CCNC4=O)c2nc1N[C@H]1CCNC1 ?
3

What do you get for Cc1nc2cccc(-c3cc4c([nH]3)CCNC4=O)c2nc1NC1(CO)CC1 ?
0.4

###

Target: UniProt:P11309
Experiment: Pim-Mn enzyme assay (HTRF, 384-well), Pim-1
Format: biochemical
Details: Pim-1 enzyme 5 pM, ATP 1.5 μM, BAD (S112) 0.5 μM, HTRF, 22-point curve; read-out: Pim-1-Mn IC50 IP
Quick list: IC50 per entry.
Lab book: enter the figure in nM, no units written.

Sample answers from the record:
Cc1nc2cccc(-c3cc4c([nH]3)CCNC4=O)c2nc1-c1ccccc1F [Example 428]: 39.9
CC(=O)N1CCC[C@H](Nc2nc3c(-c4cc5c([nH]4)CCNC5=O)cccc3nc2C)C1 [Example 242]: 129
CCC(C)(C)Nc1nc2c(-c3cc4c([nH]3)CCNC4=O)c(F)ccc2nc1C [Example 375]: 0.259
Cc1nc2cccc(-c3cc4c([nH]3)CNC4=O)c2nc1NC(C)(C)C [Example 334]: 1.18
Cc1nc2cccc(-c3cc(C(N)=O)c(C4CC4)[nH]3)c2nc1NC(C)(C)C [Example 418]: 3.52

Now let's try a different one.
Query: IC50; subject: O=C1NCCc2[nH]c(-c3cccc4ccc(NC5CC5)nc34)cc21 [Example 99]
1.1

###

Target: Pim-1 (Homo sapiens (Human), UniProt P11309)
Assay: Pim-Mn enzyme assay (HTRF, 384-well), Pim-1
Type: biochemical
Details: Pim-1 enzyme 5 pM, ATP 1.5 μM, BAD (S112) 0.5 μM, HTRF, 22-point curve; read-out: Pim-1-Mn IC50 IP
Quick list: IC50 per entry.
Lab book: enter the figure in nM, no units written.

CNc1nc2c(-c3cc4c([nH]3)CCNC4=O)cccc2nc1C: 7.8

Query: IC50; subject: CC[C@H]1NC(=O)c2cc(-c3cccc4c(=O)n(C)c(NC(C)(C)C)nc34)[nH]c21
0.8

What do you get for C[C@H]1NC(=O)c2cc(-c3cccc4c(=O)n(C)c(OC5(C)CC5)nc34)[nH]c21 ?
0.554

What do you get for CC(C)(C)Nc1nc2c(-c3cc4c([nH]3)CCNC4=O)cccc2nc1N ?
0.791

These measurements were taken from patent US9394297B2.
